Task for the reader: assign each of the following compounds its reported GI50.
System: CAKI-1
Experiment: NCI tumour cell line growth inhibition, 48 h
The source made the active and inactive calls. Rule as the data show it: active = GI50 up to about 1.1 µM and inactive = higher.

See these solved cases before continuing.
compound: COc1cc([C@@H]2c3cc4c(cc3[C@@H](c3c(O)cc(O)c5c3O[C@H](c3ccc(O)c(O)c3)[C@H](OC(=O)c3cc(O)c(O)c(O)c3)C5)[C@H]3COC(=O)[C@H]23)OCO4)cc(OC)c1OC
assay-value: 13.8 µM (inactive)
//
compound: COC(=O)C1CC2CC(=NNC(N)=O)CC2C1 (stereo not drawn)
assay-value: > 100 µM (inactive)
//
compound: CC1(C)C[C@H]2C3=CC[C@@H]4[C@@]5(C)CC[C@H](O)C(C)(C)[C@@H]5CC[C@@]4(C)[C@]3(C)C[C@@H](O)[C@@]23C[C@@H]1OC3=O
assay-value: > 100 µM (inactive)
//
compound: COc1c(O)cc2c(c1O)C(=O)C1=C(CCCC1)C2=O
assay-value: 27.5 µM (inactive)
//
compound: CN1CCOC(c2ccc(Cl)cc2)O1 (stereo not drawn)
assay-value: > 100 µM (inactive)

Batch request: GI50 for each of the following compounds.
1. Cc1c(C(=O)C/C(=N/NC(=O)CC#N)C(N)=O)[n+]([O-])c2ccccc2[n+]1[O-]
2. COC(=O)/C=C(/C(=O)OC)c1cc2ccc3c([nH]c4ccccc43)c(C)c-2c1
3. CC1(C)C=C(/C=C2/N(S(=O)(=O)C(F)(F)F)C(/C=C3/N(S(=O)(=O)C(F)(F)F)C(C)(C#N)CC3(C)C)=CC2(C)C)N=C1/C=C1/CC(C)(C)C(=O)N1 (stereo not drawn)

Ans.
1. > 100 µM (inactive)
2. 6.32 µM (inactive)
3. 11.4 µM (inactive)

---

Test system: A549
Assay: NCI tumour cell line growth inhibition, 48 h
Active and inactive are the calls of the source. No stated cut-off is given here; in the data, active = GI50 up to about 1.1 µM and inactive = higher.
Task for the reader: assign each of the following compounds its reported GI50.

See these solved cases before continuing.
compound: CN(C)c1nc2nonc2nc1Nc1ccccc1
GI50: > 100 µM (inactive)
//
compound: CC(C)OP(=O)(OC(C)C)C(C(C)C)N(C)/C(F)=N/C(F)(F)F (stereo unspecified)
GI50: > 100 µM (inactive)
//
compound: Brc1cccc(Nc2nc(-c3cccs3)nc3ccc(Br)cc23)c1
GI50: 29.5 µM (inactive)
//
compound: SC[C@@H]1COC[C@H](CS)S1
GI50: > 100 µM (inactive)

Batch request: GI50 for each of the following compounds.
1. CC1CC(=O)Nc2ccccc2N1C(=O)CN1CCC(CCCCN(C)C)CC1 (stereo unspecified)
2. O=C(O)c1ccccc1CC(Cc1ccc2c(c1)CCC2)C(=O)O (stereo unspecified)

Ans.
["> 100 µM (inactive)", "> 100 µM (inactive)"]

---

Tested on: DLD-1
Assay: NCI tumour cell line growth inhibition, 48 h
Activity calls are given as the source filed them. No stated cut-off is given here; in the data, active = GI50 up to about 1.1 µM and inactive = higher.
Pick one and only one: Yes for active, No for inactive

Some solved cases for reference:
compound: COc1ccc(-c2cc(O)c3cc4c(cc3n2)OCO4)c(OC)c1OC
cat: No
//
compound: COc1ccc2c(c1)c1c(C)c3cnccc3c(C)c1n2CCCN
cat: Yes
//
compound: COc1ccc(C(=O)NCCN(C)C)c2nc3ccccc3nc12
cat: No
//
compound: O=C1c2ccccc2C(=O)c2c1ccc1c2N=C(c2ccc(Br)cc2)CC(c2cccc3ccccc23)N1 (configuration not stated)
cat: No
//
compound: COc1cccc(NC(=O)CC(=O)N2N=C(N(CCC#N)c3ccccc3C)CC2c2ccccc2)c1 (configuration not stated)
cat: No

Qu. Recorded test call requested for COc1ccc(OC(C)C(=O)O)c2c(=O)ccccc12 (configuration not stated)
Ans. No

Qu. Recorded test call requested for CC1(C)C2CCC13CS(=O)(=O)N1O[C@]13C(=O)O2 (some centres not stated)
Ans. No

Qu. Recorded test call requested for N#CC(C(=O)CCCC(=O)Nc1ccc(Cl)cc1Cl)c1ccc(Cl)cc1 (configuration not stated)
Ans. No

---

Tested on: SNB-78
Experiment: NCI tumour cell line growth inhibition, 48 h
The source made the active and inactive calls. Cut-off read from the data, not from the text of the source: active = GI50 up to about 1.1 µM and inactive = higher.
measure-name: GI50

See these solved cases before continuing.
molecule: O=C(O)CN1CCSc2ccccc2CN(CC(=O)O)CCSc2ccccc2C1
GI50: > 100 µM (inactive)
--
molecule: COC1(OC)C2(Cl)C(Cl)=C(Cl)C1(Cl)C1C=CC=CC12 (stereo not given)
GI50: > 100 µM (inactive)
--
molecule: CN(C)CCCNc1ccc2ncn3c4ccc(O)cc4c(=O)c1c23
GI50: 9.73 µM (inactive)
--
molecule: O=C1CC2(CCC3=C(O2)c2ccccc2NC(=O)C3)C(=O)c2ccccc2N1 (stereo not given)
GI50: > 100 µM (inactive)

Consider now this further molecule.
Qu. Request the reported GI50 associated with "CC(C)(C)c1ccnc(/N=C2\N/C(=N\c3cc(C(C)(C)C)ccn3)c3ccccc32)c1"
Ans. 19.9 µM (inactive)

---

System: NCI/ADR-RES
Assay: NCI tumour cell line growth inhibition, 48 h
Calls of active or inactive are those of the source. Rule as the data show it: active = GI50 up to about 1.1 µM and inactive = higher.
Task for the reader: assign each of the following compounds its reported GI50.

See these solved cases before continuing.
compound: O=C(Nc1nn(C(=O)c2cccnc2)c(=O)s1)c1ccc(Cl)cc1
GI50: > 100 µM (inactive)

compound: O=C1/C(=C\c2ccc(Cl)cc2)N=C(c2ccccc2)N1n1c(=O)cn[nH]c1=S
GI50: 45 µM (inactive)

compound: Cc1nc(C)c(N2CCN(C(=O)NC(CCC(=O)O)C(=O)O)CC2)c(O)n1 (stereo unspecified)
GI50: > 100 µM (inactive)

compound: Cc1ccc(S(=O)(=O)NC(=O)NCc2ccc(S(N)(=O)=O)cc2)cc1
GI50: > 100 µM (inactive)

compound: CCOC(=O)c1ccc2c(=O)n3c(C(=O)OCC)ccc3c(=O)n12
GI50: > 100 µM (inactive)

Batch request: GI50 for each of the following compounds.
1. Nc1nc(N)c2ncn(-c3ccccc3)c2n1
2. CC1=C/C(=N\NC(N)=S)C(C(O)(C(F)(F)F)C(F)(F)F)C(C)(C)C1 (stereo unspecified)
3. COc1cc2cc3c4c(cc(OC)c(OC)c4c2cc1OC)CCN3C
4. OC(Cc1ccc2ccccc2n1)(C(F)(F)Cl)C(F)(F)Cl
5. COC(=O)c1ccccc1C1CN=NC12Cc1ccc3c(c1C2=O)CCC3 (stereo unspecified)
6. CN(C)/C=N/c1ccc2nonc2c1

Ans.
> 100 µM (inactive)
> 10 µM (inactive)
4.2 µM (inactive)
> 10 µM (inactive)
19.5 µM (inactive)
> 100 µM (inactive)

---

Test system: PC-3
Test: NCI tumour cell line growth inhibition, 48 h
The source made the active and inactive calls. No stated cut-off is given here; in the data, active = GI50 up to about 1.1 µM and inactive = higher.
measure-name: GI50

molecule: Oc1c(C(Nc2ccccn2)c2ccccc2)ccc2cccnc12 (stereo not given)
GI50: 3.39 µM (inactive)
//
molecule: O=C1C(=c2cc3c(c4ccccc24)=NC24CCCCC2C(c2ccccc2)C=C(c2ccccc2)N34)C(=O)c2ccccc21 (stereo not given)
GI50: 25.8 µM (inactive)
//
molecule: S=C1C(CCCOCc2ccccc2)C2CCCC23CC2(CCN13)OCCS2 (stereo not given)
GI50: > 10 µM (inactive)
//
molecule: O=C(Nc1nn(C(=O)c2cccnc2)c(=O)s1)c1ccc(Cl)cc1
GI50: 61.1 µM (inactive)

Consider now this further molecule.
Qu. Item "Nc1cc(S(=O)(=O)O)cc2ccc(S(=O)(=O)O)cc12" with PC-3 - GI50?
Ans. > 100 µM (inactive)

---

Tested on: EKVX
Assay: NCI tumour cell line growth inhibition, 48 h
Activity calls are given as the source filed them. Cut-off read from the data, not from the text of the source: active = GI50 up to about 1.1 µM and inactive = higher.
measure-name: GI50

compound: COC(=O)CCC(NC(=S)N/N=C(\C)c1cnccn1)C(=O)OC (stereo not given)
GI50: 40 µM (inactive)
--
compound: CC1(c2nc3ccccc3[nH]2)CCC(C(=O)O)C(C)(C)O1 (stereo not given)
GI50: > 100 µM (inactive)
--
compound: Cn1nc(-c2ccccc2)c(C(=O)/C=C/c2ccc(Cl)cc2)c(N2CCOCC2)c1=O
GI50: 8.49 µM (inactive)
--
compound: O=C1/C(=C2/CCCN2)C(c2ccc[nH]2)=NN1c1ccccc1
GI50: > 100 µM (inactive)

Consider now this further compound.
Qu. Item "C/C(=C\CO)CC[C@@H]1[C@@]2(C)CCCC(C)(C)[C@@H]2CC[C@@]1(C)O" with EKVX - GI50?
Ans. 24.8 µM (inactive)

---

System: HOP-18
Assay: NCI tumour cell line growth inhibition, 48 h
Active and inactive are the calls of the source. Rule as the data show it: active = GI50 up to about 1.1 µM and inactive = higher.
Task for the reader: assign each of the following compounds its reported GI50.

See these solved cases before continuing.
compound: [C-]#[N+][C@@H]1C2[C@H](CC[C@@]1(C)O)C(=C)CC[C@@H]2[C@@]1(C)CC[C@H](Cl)C(C)(C)O1 (stereo not given in full)
assay-value: 2.71 µM (inactive)
--
compound: C[n+]1c2ccccc2c(CNC(CS)C(=O)O)c2ccccc21 (stereo not given)
assay-value: 49.1 µM (inactive)
--
compound: C[C@]12CCC(=O)C(OC(=O)c3ccc([N+](=O)[O-])cc3)=C1CCC2=O
assay-value: > 100 µM (inactive)
--
compound: CC(=O)OCC1=C(C(=O)O)C(c2ccc3c(c2)OCO3)c2cc3c(cc2O1)OCO3 (stereo not given)
assay-value: > 100 µM (inactive)

Qu. Request the reported GI50 associated with "CC(C)(C)c1ccnc(/N=C2\N/C(=N\c3cc(C(C)(C)C)ccn3)c3ccccc32)c1"
Ans. 18.3 µM (inactive)
